Biological target: Voltage-dependent N-type calcium channel subunit alpha-1B (Homo sapiens) (UniProt Q00975)
Sequence (Q00975 whole entry, looked up): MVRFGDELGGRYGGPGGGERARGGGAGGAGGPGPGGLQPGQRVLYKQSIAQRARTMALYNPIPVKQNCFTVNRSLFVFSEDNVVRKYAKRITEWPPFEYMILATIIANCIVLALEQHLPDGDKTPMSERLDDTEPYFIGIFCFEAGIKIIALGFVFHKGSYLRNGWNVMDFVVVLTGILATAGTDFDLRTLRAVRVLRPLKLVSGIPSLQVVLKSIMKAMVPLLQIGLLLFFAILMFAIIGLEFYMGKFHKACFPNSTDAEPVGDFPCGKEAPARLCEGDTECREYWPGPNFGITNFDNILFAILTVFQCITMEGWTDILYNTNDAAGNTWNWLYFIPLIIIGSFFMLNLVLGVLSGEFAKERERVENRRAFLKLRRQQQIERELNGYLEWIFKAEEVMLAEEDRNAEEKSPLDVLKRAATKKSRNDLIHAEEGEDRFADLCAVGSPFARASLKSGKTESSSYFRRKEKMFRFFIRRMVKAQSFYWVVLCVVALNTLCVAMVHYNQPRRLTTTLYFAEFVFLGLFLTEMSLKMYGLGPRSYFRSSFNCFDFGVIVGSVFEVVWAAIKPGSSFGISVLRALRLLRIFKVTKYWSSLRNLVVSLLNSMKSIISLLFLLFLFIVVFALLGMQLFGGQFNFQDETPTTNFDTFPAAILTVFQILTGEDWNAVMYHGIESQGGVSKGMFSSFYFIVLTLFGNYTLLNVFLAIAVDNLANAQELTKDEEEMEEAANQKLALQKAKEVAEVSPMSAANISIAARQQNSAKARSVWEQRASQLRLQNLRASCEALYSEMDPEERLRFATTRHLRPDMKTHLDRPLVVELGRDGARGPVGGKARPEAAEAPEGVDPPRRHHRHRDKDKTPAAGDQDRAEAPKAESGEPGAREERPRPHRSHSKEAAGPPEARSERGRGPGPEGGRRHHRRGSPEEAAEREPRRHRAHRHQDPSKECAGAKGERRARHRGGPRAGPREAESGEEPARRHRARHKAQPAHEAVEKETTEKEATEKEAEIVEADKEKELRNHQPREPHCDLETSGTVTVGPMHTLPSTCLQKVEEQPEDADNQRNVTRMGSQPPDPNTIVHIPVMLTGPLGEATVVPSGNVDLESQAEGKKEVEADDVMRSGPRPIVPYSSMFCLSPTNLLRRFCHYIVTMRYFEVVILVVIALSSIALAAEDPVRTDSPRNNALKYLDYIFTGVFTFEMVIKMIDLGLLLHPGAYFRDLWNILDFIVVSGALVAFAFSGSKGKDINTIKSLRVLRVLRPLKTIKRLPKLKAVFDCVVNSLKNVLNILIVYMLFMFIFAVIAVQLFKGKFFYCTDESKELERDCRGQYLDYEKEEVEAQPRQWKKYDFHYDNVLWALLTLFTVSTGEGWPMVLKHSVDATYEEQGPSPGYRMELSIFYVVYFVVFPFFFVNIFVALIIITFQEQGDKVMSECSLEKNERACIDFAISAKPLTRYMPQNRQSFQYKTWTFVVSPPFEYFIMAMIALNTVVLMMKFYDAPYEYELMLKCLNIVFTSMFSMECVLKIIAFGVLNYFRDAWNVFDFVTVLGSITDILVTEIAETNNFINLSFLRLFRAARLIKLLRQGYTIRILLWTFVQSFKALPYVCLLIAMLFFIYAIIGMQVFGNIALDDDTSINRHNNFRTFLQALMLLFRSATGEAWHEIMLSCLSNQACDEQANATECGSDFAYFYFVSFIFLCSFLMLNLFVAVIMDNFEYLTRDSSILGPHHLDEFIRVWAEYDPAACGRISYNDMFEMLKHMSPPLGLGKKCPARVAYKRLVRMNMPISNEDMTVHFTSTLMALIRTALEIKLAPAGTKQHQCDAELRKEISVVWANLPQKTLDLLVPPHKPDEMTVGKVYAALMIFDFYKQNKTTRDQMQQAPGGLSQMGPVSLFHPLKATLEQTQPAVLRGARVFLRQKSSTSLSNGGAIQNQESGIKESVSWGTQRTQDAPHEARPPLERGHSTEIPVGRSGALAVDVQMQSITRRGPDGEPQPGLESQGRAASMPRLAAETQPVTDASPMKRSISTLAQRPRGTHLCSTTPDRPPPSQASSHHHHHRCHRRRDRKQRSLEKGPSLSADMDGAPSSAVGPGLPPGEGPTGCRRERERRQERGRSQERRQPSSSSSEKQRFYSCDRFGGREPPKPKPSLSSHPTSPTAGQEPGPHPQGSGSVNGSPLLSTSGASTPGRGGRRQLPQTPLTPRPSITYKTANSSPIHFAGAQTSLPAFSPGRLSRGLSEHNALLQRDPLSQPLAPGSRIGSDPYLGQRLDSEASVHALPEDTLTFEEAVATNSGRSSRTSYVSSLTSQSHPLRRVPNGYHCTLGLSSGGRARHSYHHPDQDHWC
Test: Inhibition of N-type Alpha-1B channel expressed in HEK293 cells by whole-cell patch-clamp method
Type: cell-based
Set-up: concentration or dose not given beside the values
Conditions: concentration not given here
Note that class boundaries on inhibition are lower level = under 20%, middle level = from 20% up to 80%, upper level = 80% and over

Here's what some known entries look like.
CC(C)CNCCCC(=O)N1CCN(C(c2ccccc2)c2ccc(Cl)cc2)CC1 (stereo unspecified) : lower level
COc1ccc(CNCCCC(=O)N2CCN(C(c3ccccc3)c3ccc(Cl)cc3)CC2)cc1 (stereo unspecified) : middle level
O=C(CCCNCC1CCCCC1)N1CCN(C(c2ccccc2)c2ccc(Cl)cc2)CC1 (stereo unspecified) : upper level

Q: Hi there! Could you help me figure out the category for CN(C)c1ccc(CNCCCC(=O)N2CCN(C(c3ccccc3)c3ccc(Cl)cc3)CC2)cc1 (stereo unspecified) please?
Ans: lower level

Q: Hi there! Could you help me figure out the category for O=C(CCCNCc1ccccc1)N1CCN(C(c2ccccc2)c2ccc(Cl)cc2)CC1 (stereo unspecified) please?
Ans: middle level

Q: Hi there! Could you help me figure out the category for CCC(CC)CNCCCC(=O)N1CCN(C(c2ccccc2)c2ccc(Cl)cc2)CC1 (stereo unspecified) please?
Ans: lower level

Q: Hi there! Could you help me figure out the category for O=C(CCCNCc1ccc([N+](=O)[O-])cc1)N1CCN(C(c2ccccc2)c2ccc(Cl)cc2)CC1 (stereo unspecified) please?
Ans: upper level

Q: Hi there! Could you help me figure out the category for NCCCC(=O)N1CCN(C(c2ccccc2)c2ccc(Cl)cc2)CC1 (stereo unspecified) please?
Ans: lower level

====

Target: Voltage-dependent T-type calcium channel subunit alpha-1H (Homo sapiens)
Assay: Inhibition of T-type Cav3.2 channel
Endpoint name: pKd
Remember the convention: pKd equals -log10 of concentration in molar.

Q: Dear colleague, I am looking for the recorded pKd of the following compound: Fc1ccc(C(c2ccc(F)cc2)N2CCN(C/C=C/c3ccccc3)CC2)cc1 [FLUNARIZINE]
Ans: 5.44

====

Target: Voltage-dependent T-type calcium channel subunit alpha-1G (Homo sapiens, UniProt O43497)
Sequence (O43497 whole entry): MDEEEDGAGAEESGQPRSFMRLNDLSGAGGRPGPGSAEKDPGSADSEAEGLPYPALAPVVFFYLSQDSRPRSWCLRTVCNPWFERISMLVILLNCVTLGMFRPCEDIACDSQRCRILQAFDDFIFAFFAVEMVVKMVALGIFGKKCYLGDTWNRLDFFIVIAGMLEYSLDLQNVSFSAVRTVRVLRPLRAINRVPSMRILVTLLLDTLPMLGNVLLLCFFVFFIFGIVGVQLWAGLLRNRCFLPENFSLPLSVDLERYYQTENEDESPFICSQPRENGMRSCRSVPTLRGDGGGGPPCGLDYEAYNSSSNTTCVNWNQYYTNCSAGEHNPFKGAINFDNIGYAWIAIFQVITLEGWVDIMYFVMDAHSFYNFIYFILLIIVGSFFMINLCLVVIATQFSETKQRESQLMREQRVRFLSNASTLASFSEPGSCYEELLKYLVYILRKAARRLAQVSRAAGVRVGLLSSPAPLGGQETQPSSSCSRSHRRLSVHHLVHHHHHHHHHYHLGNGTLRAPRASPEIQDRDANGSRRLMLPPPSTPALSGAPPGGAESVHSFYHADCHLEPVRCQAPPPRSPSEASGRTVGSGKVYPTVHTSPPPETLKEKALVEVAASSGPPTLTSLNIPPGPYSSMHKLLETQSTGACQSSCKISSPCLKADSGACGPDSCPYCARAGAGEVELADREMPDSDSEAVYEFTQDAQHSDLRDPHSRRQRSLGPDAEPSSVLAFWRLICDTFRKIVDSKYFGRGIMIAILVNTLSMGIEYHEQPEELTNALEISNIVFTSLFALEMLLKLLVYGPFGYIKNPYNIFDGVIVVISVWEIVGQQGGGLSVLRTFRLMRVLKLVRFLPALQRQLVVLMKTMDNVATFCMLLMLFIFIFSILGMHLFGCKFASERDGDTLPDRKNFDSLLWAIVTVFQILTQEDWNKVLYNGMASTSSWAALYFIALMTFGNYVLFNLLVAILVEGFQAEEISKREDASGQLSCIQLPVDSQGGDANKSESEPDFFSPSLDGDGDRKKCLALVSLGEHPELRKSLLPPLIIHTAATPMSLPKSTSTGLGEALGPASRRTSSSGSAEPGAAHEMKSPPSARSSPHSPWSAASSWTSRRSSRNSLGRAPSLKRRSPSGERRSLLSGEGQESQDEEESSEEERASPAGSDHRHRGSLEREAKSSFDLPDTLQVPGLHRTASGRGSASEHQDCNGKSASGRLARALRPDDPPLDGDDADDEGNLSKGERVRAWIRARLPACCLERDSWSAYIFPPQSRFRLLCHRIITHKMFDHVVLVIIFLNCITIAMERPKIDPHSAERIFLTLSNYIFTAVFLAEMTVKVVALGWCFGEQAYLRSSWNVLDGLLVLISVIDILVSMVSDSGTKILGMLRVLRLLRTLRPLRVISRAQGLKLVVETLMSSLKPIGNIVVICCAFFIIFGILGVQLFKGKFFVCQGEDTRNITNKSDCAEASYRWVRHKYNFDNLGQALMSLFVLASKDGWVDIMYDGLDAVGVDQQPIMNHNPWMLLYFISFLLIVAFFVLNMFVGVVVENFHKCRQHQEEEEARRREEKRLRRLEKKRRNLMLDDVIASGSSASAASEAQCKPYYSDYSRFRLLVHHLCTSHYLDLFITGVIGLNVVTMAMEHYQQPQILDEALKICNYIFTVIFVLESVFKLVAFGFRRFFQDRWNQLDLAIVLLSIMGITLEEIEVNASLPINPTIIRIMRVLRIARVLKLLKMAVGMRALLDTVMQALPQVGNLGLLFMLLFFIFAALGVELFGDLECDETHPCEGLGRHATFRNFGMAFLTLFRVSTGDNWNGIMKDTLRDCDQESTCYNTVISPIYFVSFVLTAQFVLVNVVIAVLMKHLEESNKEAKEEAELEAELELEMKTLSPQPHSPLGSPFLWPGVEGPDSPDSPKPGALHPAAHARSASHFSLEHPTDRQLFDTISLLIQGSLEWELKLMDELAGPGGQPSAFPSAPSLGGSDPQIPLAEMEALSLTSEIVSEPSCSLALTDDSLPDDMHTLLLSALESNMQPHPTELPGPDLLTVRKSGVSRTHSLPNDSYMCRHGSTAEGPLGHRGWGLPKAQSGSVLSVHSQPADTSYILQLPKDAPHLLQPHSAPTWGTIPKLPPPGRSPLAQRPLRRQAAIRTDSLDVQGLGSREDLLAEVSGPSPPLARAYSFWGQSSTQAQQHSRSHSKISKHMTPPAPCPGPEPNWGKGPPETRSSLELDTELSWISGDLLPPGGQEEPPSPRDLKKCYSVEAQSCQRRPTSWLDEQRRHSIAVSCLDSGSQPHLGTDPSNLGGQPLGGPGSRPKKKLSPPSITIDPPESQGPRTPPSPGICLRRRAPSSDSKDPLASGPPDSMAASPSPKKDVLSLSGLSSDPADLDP
Experiment: Inhibition of T-type alpha1G channel expressed in HEK293 cells by whole-cell patch-clamp method
Collected pIC50 values appear next to each entry.
Remember the convention: pIC50 equals -log10 of concentration in molar.

CCC(CC)CNCCCC(=O)N1CCN(C(c2ccccc2)c2ccc(Cl)cc2)CC1 (stereo unspecified) : 5.81
NCCCC(=O)N1CCN(C(c2ccccc2)c2ccc(Cl)cc2)CC1 (stereo unspecified) : 5.43
COc1ccc(CNCCCC(=O)N2CCN(C(c3ccccc3)c3ccc(Cl)cc3)CC2)cc1 (stereo unspecified) : 4.79

Q: Please state recorded pIC50 (tested on Voltage-dependent T-type calcium channel subunit alpha-1G (Homo sapiens, UniProt O43497)) of O=C(CCCNCC1CCCCC1)N1CCN(C(c2ccccc2)c2ccc(Cl)cc2)CC1 (stereo unspecified)
Ans: 6.72

====

Assay: Inhibition of L-type calcium channel
Endpoint name: IC50 (µM)
Give the value in µM but do not write µM after it.

Q: Dear colleague, I am looking for the recorded IC50 of the following compound: COCC(=O)O[C@]1(CCN(C)CCCc2nc3ccccc3[nH]2)CCc2cc(F)ccc2[C@@H]1C(C)C [MIBEFRADIL]
Ans: 10

====

Biological target: Voltage-dependent T-type calcium channel subunit alpha-1G (Homo sapiens, UniProt O43497)
Assay: Inhibition of T-type Cav3.1 channel
Endpoint name: Kd (nM)
Give the value in nM but do not write nM after it.

Q: Please state recorded Kd (tested on Voltage-dependent T-type calcium channel subunit alpha-1G (Homo sapiens, UniProt O43497)) of Fc1ccc(C(c2ccc(F)cc2)N2CCN(C/C=C/c3ccccc3)CC2)cc1 [FLUNARIZINE]
Ans: 530

====

Collected inhibition values appear next to each entry.
Biological target: Voltage-dependent N-type calcium channel subunit alpha-1B (Homo sapiens) (UniProt Q00975)
Assay: Inhibition of N-type Alpha-1B channel expressed in HEK293 cells by whole-cell patch-clamp method
Format: cell-based
Set-up: concentration or dose not given beside the values
Settings: concentration not given here
Give the value in % but do not write % after it.

Consider the reported inhibition for these compounds:
O=C(CCCNCc1c(Cl)cccc1Cl)N1CCN(C(c2ccccc2)c2ccc(Cl)cc2)CC1 (stereo not drawn) : 78.4
CC(C)c1ccc(CNCCCC(=O)N2CCN(C(c3ccccc3)c3ccc(Cl)cc3)CC2)cc1 (stereo not drawn) : 80.2

Read the next record carefully.
Q: Dear colleague, I am looking for the recorded inhibition of the following compound: CCNCCCC(=O)N1CCN(C(c2ccccc2)c2ccc(Cl)cc2)CC1 (stereo not drawn)
Ans: 20

====

Target: Voltage-dependent T-type calcium channel subunit alpha-1G (Homo sapiens, UniProt O43497)
Test: Inhibition of T-type alpha1G channel expressed in HEK293 cells by whole-cell patch-clamp method
Endpoint name: IC50 (nM)
Give the value in nM but do not write nM after it.

Consider the reported IC50 for these compounds:
CCNCCCC(=O)N1CCN(C(c2ccccc2)c2ccc(Cl)cc2)CC1 (configuration not stated) : 420
O=C(CCCNCc1c(Cl)cccc1Cl)N1CCN(C(c2ccccc2)c2ccc(Cl)cc2)CC1 (configuration not stated) : 1020
O=C(CCCNCc1ccccc1)N1CCN(C(c2ccccc2)c2ccc(Cl)cc2)CC1 (configuration not stated) : 1670
O=C(CCCNCc1ccc([N+](=O)[O-])cc1)N1CCN(C(c2ccccc2)c2ccc(Cl)cc2)CC1 (configuration not stated) : 600
CC(C)c1ccc(CNCCCC(=O)N2CCN(C(c3ccccc3)c3ccc(Cl)cc3)CC2)cc1 (configuration not stated) : 280

Q: Please state recorded IC50 (tested on Voltage-dependent T-type calcium channel subunit alpha-1G (Homo sapiens, UniProt O43497)) of CC(C)CNCCCC(=O)N1CCN(C(c2ccccc2)c2ccc(Cl)cc2)CC1 (configuration not stated)
Ans: 360

Q: Please state recorded IC50 (tested on Voltage-dependent T-type calcium channel subunit alpha-1G (Homo sapiens, UniProt O43497)) of CN(C)c1ccc(CNCCCC(=O)N2CCN(C(c3ccccc3)c3ccc(Cl)cc3)CC2)cc1 (configuration not stated)
Ans: 2320
